molecular target: human 5-HT2C receptor (Homo sapiens); test: 5-HT2C receptor-stimulated calcium mobilization (FLIPR) in CHO cells; format: cell-based; details: reference compounds; read-out: EC50
Property: EC50

> print(dat)
                                   compound  value.observed
1  Cc1cc2c(cc1Cl)N(C(=O)Nc1ccc(Oc3cccnc3C)nc1)CC2 [SB242084, reference compound]         0.01 nM

====

target: human 5-HT2C receptor (Homo sapiens, UniProt P28335); test: 5-HT2C receptor-stimulated calcium mobilization (FLIPR) in CHO cells; type: cell-based; conditions: CHO; read-out: 5-HT2C Function EMax (%)
Sequence (P28335 33-458): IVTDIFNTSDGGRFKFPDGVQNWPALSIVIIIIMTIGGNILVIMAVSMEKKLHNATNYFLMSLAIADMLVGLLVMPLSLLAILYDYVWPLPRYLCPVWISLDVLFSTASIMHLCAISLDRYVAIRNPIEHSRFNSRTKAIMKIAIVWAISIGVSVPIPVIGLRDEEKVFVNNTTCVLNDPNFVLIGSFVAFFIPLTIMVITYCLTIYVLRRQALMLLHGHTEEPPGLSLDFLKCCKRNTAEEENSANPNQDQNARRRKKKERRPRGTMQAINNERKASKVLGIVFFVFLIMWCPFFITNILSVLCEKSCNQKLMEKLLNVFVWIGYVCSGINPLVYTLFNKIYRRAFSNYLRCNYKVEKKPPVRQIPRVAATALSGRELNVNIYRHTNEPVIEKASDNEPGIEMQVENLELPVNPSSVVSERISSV
Binary call on Emax: Yes from 40% upward, No beneath that.

> print(dat)
                                    compound  class.assignment
 1  CNCC1COc2cccc(-c3cc(Cl)ccc3OC)c2O1 (centres unmarked)                No
 2  NC[C@H]1COc2cc(Cl)cc(-c3ccccc3C(F)(F)F)c2O1               Yes
 3   NC[C@H]1Oc2cc(F)cc(-c3c(Cl)cccc3Cl)c2O1               Yes
 4  NCC1COc2cccc(-c3ccccc3Cl)c2O1 (centres unmarked)               Yes
 5  CNCC1COc2cccc(-c3cccc(F)c3F)c2O1 (centres unmarked)                No
 6    COc1ccccc1-c1cc(Cl)cc2c1O[C@@H](CN)CO2               Yes
 7  Cc1cccc(C)c1-c1cccc2c1OC(CN)CO2 (centres unmarked)               Yes
 8  C=CCNCC1COc2cccc(-c3ccc(Cl)cc3Cl)c2O1 (centres unmarked)                No
 9  NCC1Oc2cc(Cl)cc(-c3ccc(Cl)cc3Cl)c2O1 (centres unmarked)               Yes
10  NC[C@H]1COc2cc(Cl)cc(-c3cc(Cl)ccc3Cl)c2O1               Yes
11  CNCC1COc2cccc(-c3ccccc3C)c2O1 (centres unmarked)               Yes
12  COc1ccccc1-c1cc(F)cc2c1OC(CN)O2 (centres unmarked)               Yes
13  CNCC1COc2cccc(-c3cccc(C)c3C)c2O1 (centres unmarked)                No
14   NC[C@H]1COc2cccc(-c3ccccc3C(F)(F)F)c2O1               Yes
15  Clc1ccccc1-c1cccc2c1OC(CNCC1CC1)CO2 (centres unmarked)                No
16     NC[C@H]1COc2cc(Cl)cc(-c3ccccc3Cl)c2O1               Yes
17  CNCC1COc2cccc(-c3cc(C)ccc3C)c2O1 (centres unmarked)               Yes
18  NCC1COc2cccc(-c3cc(Cl)ccc3Cl)c2O1 (centres unmarked)               Yes
19  Clc1ccccc1-c1cccc2c1OC(CNC1CC1)CO2 (centres unmarked)                No
